Reference source: patent US20180057604A1

A collection of binders and their measured % inhibition of BACE1 activity, short FRET substrate
target: human BACE1 ECD; assay: cell-based or functional assay; note: test concentration or dose not given here
Sequence (single chain, as listed by the source limits assumed): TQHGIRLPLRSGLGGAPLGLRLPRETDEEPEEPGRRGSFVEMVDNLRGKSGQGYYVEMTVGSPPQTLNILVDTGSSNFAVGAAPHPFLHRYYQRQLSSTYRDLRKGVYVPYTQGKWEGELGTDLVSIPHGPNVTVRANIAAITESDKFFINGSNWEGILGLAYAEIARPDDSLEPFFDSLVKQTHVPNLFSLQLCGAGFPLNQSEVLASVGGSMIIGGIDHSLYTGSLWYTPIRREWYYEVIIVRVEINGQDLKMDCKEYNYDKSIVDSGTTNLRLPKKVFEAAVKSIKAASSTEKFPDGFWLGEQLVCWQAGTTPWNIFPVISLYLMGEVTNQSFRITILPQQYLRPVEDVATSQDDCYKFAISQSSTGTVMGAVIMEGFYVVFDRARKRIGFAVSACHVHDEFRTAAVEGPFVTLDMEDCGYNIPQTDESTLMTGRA
Write the answer as a number in %, unit excluded.

5887 (antibody, V domains shown, anti-BACE1 IgG) VH: QVQLVQSGAEVKKPGSSVKVSCKASGGTFRGYAISWVRQAPGQGLEWMGNIIPGFGTANYAQKFQGRVTITADESTSTAYMELSSLRSEDTAVYYCARSGGTKYGMLDVWGQGTMVTVSS VL: EIVMTQSPATLSVSPGERATLSCRASQSVSSNLAWYQQKPGQAPRLLIYGASTRATGIPARFSGSGSGTEFTLTISSLQSEDFAVYYCQQLILWPPRTFGGGTKVEIK
-102

Now for the binder whose % inhibition of BACE1 activity, short FRET substrate we want.
Query: GET /values?readout=% inhibition of BACE1 activity, short FRET substrate&item= 5893 (antibody, V domains shown, anti-BACE1 IgG) VH: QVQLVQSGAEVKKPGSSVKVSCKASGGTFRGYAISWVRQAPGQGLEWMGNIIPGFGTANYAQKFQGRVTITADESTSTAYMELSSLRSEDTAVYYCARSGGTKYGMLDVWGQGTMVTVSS VL: EIVMTQSPATLSVSPGERATLSCRASQSVGSNLAWYQQKPGQAPRLLIYGASTRATGIPARFSGSGSGTEFTLTISSLQSEDFAVYYCQQLYTWPPRTFGGGTKVEIK
Result: 72
